Reference source: patent US9850283B2

# Measured On: LK35.2-hPD-L1 cells / PE-labeled PD-1-Ig (Homo sapiens, UniProt Q9NZQ7)
# Construct: expressed in transfected cells; host or cells: LK35.2 mouse B cell line
# Sequence (Q9NZQ7 19-290): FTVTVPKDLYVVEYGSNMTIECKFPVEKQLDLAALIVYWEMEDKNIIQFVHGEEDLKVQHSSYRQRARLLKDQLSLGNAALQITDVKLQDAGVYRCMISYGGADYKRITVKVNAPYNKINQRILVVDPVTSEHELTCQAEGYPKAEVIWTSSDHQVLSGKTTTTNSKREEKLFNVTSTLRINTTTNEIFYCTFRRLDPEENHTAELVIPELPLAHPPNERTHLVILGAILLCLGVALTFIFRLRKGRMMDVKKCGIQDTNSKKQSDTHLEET
# Protocol Details: LK35.2-hPD-L1 cell binding high-content screening assay
# Assay type: cell-based
# Applied Conditions: cell binding assay, cell line not given; cluster symbol; read-out: CBA IC50 cluster
pIC50: −log10 of the molar value. Positions of bridges follow the written chain, without caps; N, C: chain ends. Non-standard residues stand in square brackets, D forms with d. Residues, ends and D or L forms follow the SMILES beside them. ξ: configuration not given here. Bta = N[C@@H](Cc1csc2ccccc12)C(=O)O; NMeNle = CCCC[C@H](NC)C(=O)O; NMeA = CN[C@@H](C)C(=O)O; ξC = NC(CS)C(=O)O
Measure: pIC50

The reported pIC50 value, LK35.2-hPD-L1 cells / PE-labeled PD-1-Ig (Homo sapiens, UniProt Q9NZQ7), for CCCC[C@H]1C(=O)N(C)[C@@H](CCCC)C(=O)N[C@@H](CCCNC(=N)N)C(=O)NC(C(=O)NCC(N)=O)CSCC(=O)N[C@@H](Cc2ccc(O)cc2)C(=O)N(C)[C@@H](C)C(=O)N[C@@H](CC(N)=O)C(=O)N2CCC[C@H]2C(=O)N[C@@H](CC(N)=O)C(=O)N[C@@H](CC(C)C)C(=O)N2CCC[C@H]2C(=O)N[C@@H](Cc2c[nH]c3ccccc23)C(=O)N[C@@H](CO)C(=O)N[C@@H](Cc2csc3ccccc23)C(=O)N1C (stereo partly shown) [Example 9060] ({CH2CO}-Y[NMeA]NPNLPWS[Bta][NMeNle][NMeNle]R[ξC]G-NH2; thioether N-14) reads 8.33 to 9.80

====

# Measured On: Human PD-L1/PD-1 (Homo sapiens, UniProt Q9NZQ7)
# Construct: made in house; host or cells: HEK293T
# Sequence (Q9NZQ7 with tags, fused parts or gaps): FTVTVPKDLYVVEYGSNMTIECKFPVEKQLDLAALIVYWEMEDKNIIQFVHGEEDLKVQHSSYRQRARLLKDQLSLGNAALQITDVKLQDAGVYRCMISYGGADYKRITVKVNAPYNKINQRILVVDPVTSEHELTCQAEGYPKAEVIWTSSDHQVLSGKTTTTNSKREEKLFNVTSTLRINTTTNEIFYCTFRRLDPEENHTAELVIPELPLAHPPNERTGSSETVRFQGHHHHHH
# Protocol Details: HTRF PD-1-Ig/PD-L1-His binding assay (human PD-L1)
# Applied Conditions: cluster symbol; read-out: HTRF IC50 cluster
pIC50: −log10 of the molar value. Positions of bridges follow the written chain, without caps; N, C: chain ends. Non-standard residues stand in square brackets, D forms with d. Residues, ends and D or L forms follow the SMILES beside them. Phe(3-OMe) = COc1cccc(C[C@H](N)C(=O)O)c1; NMeF = CN[C@@H](Cc1ccccc1)C(=O)O; NMeNle = CCCC[C@H](NC)C(=O)O; Sar = CNCC(=O)O
Measure: pIC50

[
  {
    "Compound": "CCCC[C@H]1C(=O)N(C)[C@@H](CCCC)C(=O)N[C@@H](CCCN)C(=O)N[C@H](C(=O)NCC(N)=O)CSCC(=O)N[C@@H](Cc2ccc(O)cc2)C(=O)N2CCCC[C@H]2C(=O)N[C@@H](CC(N)=O)C(=O)N2CCC[C@H]2C(=O)N[C@@H](Cc2cnc[nH]2)C(=O)N[C@@H](CC(C)C)C(=O)N2C[C@H](O)C[C@H]2C(=O)N[C@@H](Cc2c[nH]c3ccccc23)C(=O)N[C@@H](CO)C(=O)N[C@@H](Cc2c[nH]c3ccccc23)C(=O)N1C",
    "Measure": "pIC50",
    "Observed Measurement": "8.17 to 9.41"
  }
]

Now, please, on to the next compound.
Briefly, pIC50 measured for CCCC[C@H]1C(=O)N(C)CC(=O)N[C@@H](CC(=O)O)C(=O)N[C@@H](C(C)C)C(=O)N(C)[C@@H](Cc2ccccc2)C(=O)N[C@@H](Cc2ccc(O)cc2)C(=O)N(C)CC(=O)N[C@@H](Cc2cccc(OC)c2)C(=O)N[C@@H](Cc2ccc(O)cc2)C(=O)N[C@@H](CC(C)C)C(=O)N[C@H](C(=O)NCC(N)=O)CSCC(=O)N[C@@H](Cc2ccccc2)C(=O)N(C)[C@@H](Cc2ccccc2)C(=O)N1C [Example 3548] ({CH2CO}-F[NMeF][NMeNle][Sar]DV[NMeF]Y[Sar][Phe(3-OMe)]YLCG-NH2; thioether N-13) : < 7.52

====

# Measured On: Human PD-L1/PD-1 (Homo sapiens)
# Construct: made in house; host or cells: HEK293T
# Protocol Details: HTRF PD-1-Ig/PD-L1-His binding assay (human PD-L1)
# Applied Conditions: cluster symbol; read-out: HTRF IC50 cluster
pIC50: −log10 of the molar value. Positions of bridges follow the written chain, without caps; N, C: chain ends. Non-standard residues stand in square brackets, D forms with d. Residues, ends and D or L forms follow the SMILES beside them. ξ: configuration not given here. *: point of attachment. Hyp = O=C(O)[C@@H]1C[C@@H](O)CN1; NMeNle = CCCC[C@H](NC)C(=O)O; NMeM = CN[C@@H](CCSC)C(=O)O; NMeS = CN[C@@H](CO)C(=O)O; NMeA = CN[C@@H](C)C(=O)O; Dap = NC[C@H](N)C(=O)O; Bn = c1ccc(C*)cc1; ξC = NC(CS)C(=O)O; Sar = CNCC(=O)O
Measure: pIC50

[
  {
    "Molecule": "CCCC[C@H]1C(=O)N(C)[C@@H](CCCC)C(=O)N[C@@H](CCCNC(=N)N)C(=O)N[C@H](C(=O)NCC(N)=O)CSCC(=O)N[C@@H](Cc2ccc(O)cc2)C(=O)N2CCC[C@@H]2C(=O)N[C@@H](CC(N)=O)C(=O)N2CCC[C@H]2C(=O)N[C@@H](Cc2cnc[nH]2)C(=O)N[C@@H](CC(C)C)C(=O)N2CCC[C@H]2C(=O)N[C@@H](Cc2c[nH]c3ccccc23)C(=O)N[C@@H](CO)C(=O)N[C@@H](Cc2c[nH]c3ccccc23)C(=O)N1C [Example 1137] ({CH2CO}-Y[dP]NPHLPWSW[NMeNle][NMeNle]RCG-NH2; thioether N-14)",
    "pIC50": "< 7.52"
  },
  {
    "Molecule": "CCCC[C@H]1C(=O)N(C)CC(=O)N[C@@H](CC(=O)O)C(=O)N[C@@H](C(C)C)C(=O)N(C)[C@@H](Cc2ccccc2)C(=O)N[C@@H](Cc2ccc(O)cc2)C(=O)N(C)CC(=O)N[C@@H](Cc2c[nH]c3ccccc23)C(=O)N[C@@H](Cc2ccc(O)cc2)C(=O)N[C@@H](CC(C)C)C(=O)N[C@H](C(=O)NCC(N)=O)CSCC(=O)N[C@@H](Cc2ccccc2)C(=O)N(C)[C@@H](Cc2cccc3ccccc23)C(=O)N1C (single isomer, unassigned) [Example 3585-A]",
    "pIC50": "< 7.52"
  },
  {
    "Molecule": "CCCC[C@H]1C(=O)N(C)[C@@H](CCCC)C(=O)N[C@@H](CN)C(=O)N[C@H](C(=O)NCC(N)=O)CSCC(=O)N[C@@H](Cc2ccccc2)C(=O)N(C)[C@@H](C)C(=O)N[C@@H](CC(N)=O)C(=O)N2CCC[C@H]2C(=O)N[C@@H](Cc2cnc[nH]2)C(=O)N[C@@H](CC(C)C)C(=O)N(C)CC(=O)N[C@@H](Cc2c[nH]c3ccccc23)C(=O)N[C@@H](CO)C(=O)N[C@@H](Cc2c[nH]c3ccccc23)C(=O)N1C [Example 5007] ({CH2CO}-F[NMeA]NPHL[Sar]WSW[NMeNle][NMeNle][Dap]CG-NH2; thioether N-14)",
    "pIC50": "7.52 to 8.17"
  },
  {
    "Molecule": "CC(C)C[C@@H]1NC(=O)[C@H](Cc2cnc[nH]2)NC(=O)[C@@H]2CCCN2C(=O)[C@H](CC(N)=O)NC(=O)[C@H](C)N(C)C(=O)[C@H](Cc2ccccc2)NC(=O)CSC[C@@H](C(=O)NCC(N)=O)NC(=O)[C@H](CCCNC(=N)N)NC(=O)[C@H](COCc2ccccc2)N(C)C(=O)[C@H](C)N(C)C(=O)[C@H](Cc2c[nH]c3ccccc23)NC(=O)[C@H](CO)NC(=O)[C@H](Cc2c[nH]c3ccccc23)NC(=O)CN(C)C1=O [Example 6015] ({CH2CO}-F[NMeA]NPHL[Sar]WSW[NMeA][NMeS](Bn)RCG-NH2; thioether N-14)",
    "pIC50": "< 7.52"
  },
  {
    "Molecule": "CCCC[C@H]1C(=O)N(C)CC(=O)N[C@@H](CC(=O)O)C(=O)N[C@@H](C(C)C)C(=O)N(C)[C@@H](Cc2ccccc2)C(=O)N[C@@H](Cc2ccc(O)cc2)C(=O)N(C)CC(=O)N[C@@H](Cc2c[nH]c3ccccc23)C(=O)N[C@@H](Cc2ccc(O)cc2)C(=O)N[C@@H](CC(C)C)C(=O)N[C@H](C(=O)NCC(N)=O)CC=CC(=O)N[C@@H](Cc2ccccc2)C(=O)N(C)[C@@H](Cc2ccccc2)C(=O)N1C",
    "pIC50": "< 7.52"
  }
]

Consider CCCC[C@H]1C(=O)N(C)[C@@H](CCCC)C(=O)N[C@@H](CCCNC(=N)N)C(=O)N[C@H](C(=O)NCC(N)=O)CSCC(=O)N[C@@H](Cc2ccccc2)C(=O)N(C)[C@@H](C)C(=O)N[C@@H](CC(N)=O)C(=O)N2CCC[C@H]2C(=O)N[C@@H](Cc2cnc[nH]2)C(=O)N[C@@H](CC(C)C)C(=O)NC(C)(C)C(=O)N[C@@H](Cc2c[nH]c3ccccc23)C(=O)N[C@@H](CO)C(=O)N[C@@H](Cc2c[nH]c3ccccc23)C(=O)N1C . Its measured pIC50 is < 7.52

Entry under test: CCCC[C@H]1C(=O)N(C)[C@@H](COCC)C(=O)N[C@@H](CCCNC(=N)N)C(=O)NC(C(=O)NCC(N)=O)CSCC(=O)N[C@@H](Cc2ccc(O)cc2)C(=O)N(C)[C@@H](C)C(=O)N[C@@H](CC(N)=O)C(=O)N2CCC[C@H]2C(=O)N[C@@H](Cc2cnc[nH]2)C(=O)N[C@@H](CC(C)C)C(=O)N2CCC[C@H]2C(=O)N[C@@H](Cc2c[nH]c3ccccc23)C(=O)N[C@@H](CO)C(=O)N[C@@H](Cc2c[nH]c3ccccc23)C(=O)N1C (some centres unmarked) [Example 9041] ({CH2CO}-Y[NMeA]NPHLPWSW[NMeNle][NMeS](Et)R[ξC]G-NH2; thioether N-14) . Its pIC50 was 8.17 to 9.41

// recorded pIC50 for CCCC[C@H]1C(=O)N(C)[C@@H](CCSC)C(=O)N[C@@H](CCCNC(=N)N)C(=O)NC(C(=O)NCC(N)=O)CSCC(=O)N[C@@H](Cc2ccc(O)cc2)C(=O)N(C)[C@@H](C)C(=O)N[C@@H](CC(N)=O)C(=O)N2CCC[C@H]2C(=O)N[C@@H](Cc2cnc[nH]2)C(=O)N[C@@H](CO)C(=O)N2C[C@H](O)C[C@H]2C(=O)N[C@@H](Cc2c[nH]c3ccccc23)C(=O)N[C@@H](CO)C(=O)N[C@@H](Cc2c[nH]c3ccccc23)C(=O)N1C (some centres unmarked) [Example 9107] ({CH2CO}-Y[NMeA]NPHS[Hyp]WSW[NMeNle][NMeM]R[ξC]G-NH2; thioether N-14) : 7.52 to 8.17
